# System: HCT-116 cells stably transfected with a Luciferase reporter gene under the control of HIF-responsive element
# assay method text: HIF-Luciferase Assay
# Assay type: cell-based
# setup conditions: Homo sapiens, HCT-116, HIF-Luciferase Assay, HCT-116 reporter cells, overnight at 1% oxygen; potency groups
readout label: IC50

- Cc1ccc(Cn2nc(-c3nc4ccc(C)cc4[nH]3)cc2C)cc1 [Example 39]: 1000 to 10000 nM
- Cc1ccc(Cn2nc(-c3nc(-c4ccc(-c5ccc(Cl)cc5)cc4)co3)cc2C)cc1 [Example 76]: ≤ 1000 nM
- Cc1ccc(Cn2nc(-c3nc4cc(-c5cccc(F)c5)ccc4o3)cc2C)cc1 [Example 34]: ≤ 1000 nM
- COCC(=O)Nc1ccc(-c2noc(-c3cc(C)n(Cc4ccc(C)cc4)n3)n2)cc1 [Example 27]: ≤ 1000 nM
- Cc1ccc(Cn2nc(-c3nc(-c4ccc(C5CCCCC5)cc4)c[nH]3)cc2C)cc1 [Example 68]: ≤ 1000 nM
- Cc1ccc(Cn2nc(-c3nc4cc(Cl)c(F)cc4[nH]3)cc2C)cc1 [Example 56]: 1000 to 10000 nM
- Cc1ccc(Cn2nc(-c3nc4ccc(-c5ccc(Cl)cc5)cc4[nH]3)cc2C)cc1 [Example 64]: ≤ 1000 nM
- Cc1ccc(Cn2nc(-c3nc(-c4ccc(C(F)(F)F)cc4)no3)cc2C)cc1 [Example 7]: ≤ 1000 nM
- Cc1ccc(Cn2nc(-c3nc4ccc(C(=O)c5ccccc5)cc4[nH]3)cc2C)cc1 [Example 46]: ≤ 1000 nM
- Cc1ccc(Cn2nc(-c3nc(-c4ccc(OC(F)(F)F)cc4)c[nH]3)cc2C)cc1 [Example 65]: ≤ 1000 nM
- Cc1ccc(Cn2nc(-c3nc(-c4ccc(N5CCOCC5=O)cc4)no3)cc2C)cc1 [Example 26]: ≤ 1000 nM
- Cc1ccc(Cn2nc(-c3nc4ccc(-c5ccccc5F)cc4[nH]3)cc2C)cc1 [Example 60]: ≤ 1000 nM
- Cc1ccc(Cn2nc(-c3nc(-c4ccccc4)c(-c4ccccc4)[nH]3)cc2C)cc1 [Example 66]: 1000 to 10000 nM
- Cc1ccc(Cn2nc(-c3nc(-c4ccc(C(F)(F)F)nc4)no3)cc2C)cc1 [Example 17]: ≤ 1000 nM
- Cc1ccc(Cn2nc(-c3nc(-c4ccc(OC(C)C)cc4)no3)cc2C)cc1 [Example 20]: ≤ 1000 nM
- Cc1ccc(Cn2nc(-c3nc4ccc(OC(F)(F)F)cc4[nH]3)cc2C)cc1 [Example 58]: ≤ 1000 nM
- Cc1ccc(Cn2nc(-c3nc4ccc(C5CCCCC5)cc4[nH]3)cc2C)cc1 [Example 51]: ≤ 1000 nM
- Cc1ccc(Cn2nc(-c3nc4ccc(Oc5ccccc5)cc4o3)cc2C)cc1 [Example 30]: ≤ 1000 nM
- Cc1ccc(Cn2nc(-c3nc4cc(-c5ccccc5F)ccc4o3)cc2C)cc1 [Example 35]: ≤ 1000 nM
